- Target: Full length DGKζ (in-house protein M1-V929) (Homo sapiens)
- Construct: His (N); TEV cleavage site (N)
- Test Name: Biochemical DGK IC50 assay (ADP-Glo, lipid micelle substrate), DGKζ
- Measurement Context: 0.5 nM enzyme, 140 μM ATP, 80 μM DAG, 1 hour preincubation, 1 hour reaction, room temperature, read-out: IC50s for DGKζ
Measurement Type: IC50 (nM)

Solved entries (count: 3):
- Compound: "CC#CCc1cn2c(n1)c(N1C[C@@H](CC)N(C(C)c3ccc4nc(C)sc4c3F)C[C@@H]1CC)cc(=O)n2C (single isomer, unassigned) [Compound A116a]"
  Target: "Full length DGKζ (in-house protein M1-V929) (Homo sapiens)"
  Endpoint Unit: "nM"
  IC50: 132
- Compound: "CC[C@H]1CN(C(C)c2cc3sc(C)nc3cc2F)[C@H](CC)CN1c1cc(=O)n(C)n2cc(CC#N)nc12 (single isomer, unassigned) [Compound A61a]"
  Target: "Full length DGKζ (in-house protein M1-V929) (Homo sapiens)"
  Endpoint Unit: "nM"
  IC50: 126
- Compound: "CC[C@H]1CN(C(C)c2ccc3cc(F)sc3n2)[C@H](CC)CN1c1cc(=O)n(C)n2cc(CC#N)nc12 (single isomer, unassigned) [Compound A105a]"
  Target: "Full length DGKζ (in-house protein M1-V929) (Homo sapiens)"
  Endpoint Unit: "nM"
  IC50: 706

[A] [2H]C([2H])([2H])c1nc2ccc(C(C)N3C[C@H](CC)N(c4cc(=O)n(C)n5cc(CC#N)nc45)C[C@H]3CC)cc2s1 (single isomer, unassigned) [Compound A96b]
[B] CC[C@H]1CN(C(C)c2ccc(C3CC3)nc2F)[C@H](CC)CN1c1cc(=O)n(C)n2cc(CC#N)nc12 (single isomer, unassigned) [Compound A42a]
[C] CC[C@H]1CN(C(C)c2ccc(C3CC3)nc2F)[C@H](CC)CN1c1cc(=O)n(C)n2cc(CC#N)nc12 (single isomer, unassigned) [Compound A42b]
[D] CC[C@H]1CN(C(C)c2ccc3ncsc3n2)[C@H](CC)CN1c1c(C#N)c(=O)n(C)n2cc(CC#N)nc12 (some centres unmarked) [Compound A114]
[E] CC[C@@H]1CN(c2cc(=O)n(C)n3cc(CC#N)nc23)[C@@H](C)CN1C(C)c1ccc(C2CC2)nc1 (single isomer, unassigned) [Compound A43a]
Order the records, beginning with the lowest IC50 and ending with the highest. API: response body holds the labels in the requested order.
B, D, E, A, C

----------
- Target: Full length DGKζ (in-house protein M1-V929) (Homo sapiens)
- Construct: His (N); TEV cleavage site (N)
- Test Name: Biochemical DGK IC50 assay (ADP-Glo, lipid micelle substrate), DGKζ
- Measurement Context: 0.5 nM enzyme, 140 μM ATP, 80 μM DAG, 1 hour preincubation, 1 hour reaction, room temperature, read-out: IC50s for DGKζ
Measurement Type: IC50 (nM)

- Compound: "CC#CCc1cn2c(n1)c(N1C[C@@H](CC)N(C(C)c3ccc4nc(C)sc4c3)C[C@@H]1CC)cc(=O)n2C (single isomer, unassigned) [Compound A68a]"
  Measurement Type: "IC50"
  Reported Value: 104
- Compound: "CCC(c1ccc(C(F)(F)F)cc1)N1C[C@H](CC)N(c2cc(=O)n(C)n3cc(CC#N)nc23)C[C@H]1CC (single isomer, unassigned) [Compound A77b]"
  Measurement Type: "IC50"
  Reported Value: 1940
- Compound: "CC(c1ccc2c(c1)OC(F)(F)O2)N1C[C@H](C)N(c2cc(=O)n(C)n3cc(CC#N)nc23)C[C@H]1C (stereo partly drawn) [Compound A31]"
  Measurement Type: "IC50"
  Reported Value: 1130
- Compound: "CC[C@H]1CN(C(C)c2ccc3ncsc3n2)[C@H](CC)CN1c1c(F)c(=O)n(C)n2cc(CC#N)nc12 (single isomer, unassigned) [Compound A81a]"
  Measurement Type: "IC50"
  Reported Value: 1260
- Compound: "CCC(c1ccc(C2CC2)nc1)N1C[C@H](CC)N(c2cc(=O)n(C)n3cc(CC#N)nc23)C[C@H]1CC (single isomer, unassigned) [Compound A89b]"
  Measurement Type: "IC50"
  Reported Value: 1010

[P] CC[C@H]1CN(C(C)c2ccc3nc(C)sc3n2)[C@H](C)CN1c1cc(=O)n(C)n2cc(CC#N)nc12 (single isomer, unassigned) [Compound A121b]
[Q] CCc1nc2ccc(C(C)N3C[C@H](CC)N(c4cc(=O)n(C)n5cc(CC#N)nc45)C[C@H]3CC)cc2s1 (single isomer, unassigned) [Compound A100b]
[R] CCC(c1ccc(C(F)(F)F)cc1)N1C[C@H](CC)N(c2cc(=O)n(C)n3cc(CC#N)nc23)C[C@H]1CC (single isomer, unassigned) [Compound A77a]
[S] CC[C@H]1CN(C(C)c2ccc3nc(C)sc3n2)[C@H](CC)CN1c1c(F)c(=O)n(C)n2cc(CC#N)nc12 (single isomer, unassigned) [Compound A82a]
[T] CC[C@H]1CN(C(C)c2ccc3nccnc3c2)[C@H](CC)CN1c1cc(=O)[nH]n2cc(CC#N)nc12 (stereo partly drawn) [Compound A15]
Order the records, beginning with the lowest IC50 and ending with the highest. API: response body holds the labels in the requested order.
S, P, R, Q, T
(S: 15 nM, P: 143 nM, R: 255 nM, Q: 911 nM, T: 3870 nM)

----------
- Target: Full length DGKζ (in-house protein M1-V929) (Homo sapiens, UniProt Q13574)
- Construct: His (N); TEV cleavage site (N)
- Sequence (Q13574 1-929 isoform Q13574-4): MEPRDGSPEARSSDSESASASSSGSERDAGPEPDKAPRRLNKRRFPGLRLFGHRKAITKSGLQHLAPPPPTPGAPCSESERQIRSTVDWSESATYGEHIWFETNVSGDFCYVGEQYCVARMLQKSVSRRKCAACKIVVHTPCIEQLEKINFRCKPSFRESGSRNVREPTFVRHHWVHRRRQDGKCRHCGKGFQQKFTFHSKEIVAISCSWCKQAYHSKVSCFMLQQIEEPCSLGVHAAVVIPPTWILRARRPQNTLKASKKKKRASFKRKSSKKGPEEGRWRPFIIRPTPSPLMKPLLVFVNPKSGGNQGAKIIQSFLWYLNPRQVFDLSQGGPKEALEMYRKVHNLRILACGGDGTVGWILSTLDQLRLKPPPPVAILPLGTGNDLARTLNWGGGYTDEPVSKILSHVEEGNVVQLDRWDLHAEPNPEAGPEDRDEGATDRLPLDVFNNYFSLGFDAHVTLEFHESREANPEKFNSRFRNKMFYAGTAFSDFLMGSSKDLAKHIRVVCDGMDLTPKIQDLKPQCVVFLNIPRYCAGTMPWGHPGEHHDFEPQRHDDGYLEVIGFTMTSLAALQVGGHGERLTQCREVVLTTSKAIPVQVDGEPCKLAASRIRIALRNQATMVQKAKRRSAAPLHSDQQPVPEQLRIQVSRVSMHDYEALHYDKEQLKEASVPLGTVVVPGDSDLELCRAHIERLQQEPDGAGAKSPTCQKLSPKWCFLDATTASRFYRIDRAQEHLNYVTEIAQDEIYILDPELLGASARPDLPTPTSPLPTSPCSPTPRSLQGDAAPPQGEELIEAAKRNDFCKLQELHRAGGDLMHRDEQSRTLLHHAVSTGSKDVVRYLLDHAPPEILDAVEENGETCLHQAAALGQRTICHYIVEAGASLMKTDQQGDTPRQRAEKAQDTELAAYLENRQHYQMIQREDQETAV
- Test Name: Biochemical DGK IC50 assay (ADP-Glo, lipid micelle substrate), DGKζ
- Measurement Context: 0.5 nM enzyme, 140 μM ATP, 80 μM DAG, 1 hour preincubation, 1 hour reaction, room temperature, read-out: IC50s for DGKζ
pIC50: −log10 of the molar value.
Measurement Type: pIC50

- Molecule: "CC[C@H]1CN(C(C)c2ccc3nc(C)sc3c2)[C@H](CC)CN1c1cc(=O)n(C)n2cc(C=NOC)nc12 (single isomer, unassigned) [Compound A123bc]"
  Target: "Full length DGKζ (in-house protein M1-V929) (Homo sapiens, UniProt Q13574)"
  pIC50: 5.62

[a] CC[C@H]1CN(C(C)c2ccc3nc(C)sc3n2)[C@H](CC)CN1c1cc(=O)n(C)n2cc(C=NOC)nc12 (single isomer, unassigned) [Compound A124bc]
[b] CC[C@@H]1CN(c2cc(=O)n(C)n3cc(CC#N)nc23)[C@@H](C)CN1C(C)c1ccc2nc(C)sc2c1F (single isomer, unassigned) [Compound A63a]
Between a and b , which one has the lower reported pIC50 value? Write the label of whichever entry you select.
a
(a: 5.09, b: 8.22)

----------
Please consider the recorded IC50 for Full length DGKα (D21-10BG, SignalChem) (Homo sapiens) in what follows.
Measurement Type: IC50 (nM)

Solved entries (count: 3):
- Compound: "CC[C@H]1CN(C(C)c2cc3scnc3cc2F)[C@H](CC)CN1c1cc(=O)n(C)n2cc(CC#N)nc12 (single isomer, unassigned) [Compound A59b]"
  IC50 [nM]: 1580
- Compound: "CC[C@H]1CN(C(C)c2ccc(C(C)C)nc2)[C@H](CC)CN1c1cc(=O)n(C)n2cc(CC#N)nc12 (single isomer, unassigned) [Compound A38a]"
  IC50 [nM]: 43
- Compound: "CC[C@H]1CN(C(C)c2ccc(C(C)(C)O)nc2)[C@H](CC)CN1c1cc(=O)n(C)n2cc(CC#N)nc12 (some centres unmarked) [Compound A41]"
  IC50 [nM]: 1270

[1] CC[C@H]1CN(C(C)c2ccc3nc(C)sc3c2)[C@H](CC)CN1c1cc(=O)n(C)n2cc(C=NOC)nc12 (single isomer, unassigned) [Compound A123d]
[2] CC[C@H]1CN(C(C)c2ccc(C(C)C)nc2)[C@H](CC)CN1c1cc(=O)n(C)n2cc(CC#N)nc12 (single isomer, unassigned) [Compound A38b]
[3] CC[C@H]1CN(C(C)c2ccc3nc(C)sc3c2)[C@H](CC)CN1c1cc(=O)n(C)n2cc(C=NOC)nc12 (single isomer, unassigned) [Compound A123a]
[4] CC[C@H]1CN(C(C)c2ccc3scnc3c2)[C@H](CC)CN1c1cc(=O)n(C)n2cc(CC#N)nc12 (single isomer, unassigned) [Compound A65a]
[5] CC[C@@H]1CN(c2cc(=O)n(C)n3cc(CC#N)nc23)[C@@H](C)CN1C(C)c1ccc2nc(C)sc2c1F (single isomer, unassigned) [Compound A63b]
Order the records, beginning with the lowest IC50 and ending with the highest. API: response body holds the labels in the requested order.
4, 3, 2, 1, 5
(4: 47 nM, 3: 269 nM, 2: 423 nM, 1: 749 nM, 5: 5780 nM)
